# yeast fitness per entry
B1: tRNA (parent)
chain: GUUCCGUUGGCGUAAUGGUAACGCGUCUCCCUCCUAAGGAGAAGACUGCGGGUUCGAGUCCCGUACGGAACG

Variants of: B1
assayRemarks: yeast fitness relative to wild type (ratio to wild type); higher = fitter; tRNA-Arg(CCU), competitive growth, 37 C, YPD
Variants at the floor of the assay were thinned out.
Please respond with just the number, no unit label.

# example entries with known answers
C24G G51C	0.537
C27U A40C G58A	0.626
C4G U26G	0.856

[in] May I ask what yeast fitness has been recorded for G9C A20U U28A ?
[out] 0.535

[in] Same read-out for U7G G58C C66U ?
[out] 0.645

[in] Same question, G50A A57C this time
[out] 0.611
